Sourced from ChEMBL document CHEMBL4373680

Catalogue of compounds with associated selectivity ratio
# protocolSummary: Selectivity index, ratio of HC50 for human erythrocytes to MIC for methicillin-resistant Staphylococcus aureus ATCC 33591
# Format: toxicity
# experimentalConditions: read-out: Selectivity Index
When you answer, write just the number.

- compound: "CCCCCCNC(=O)C[N+](C)(CCO)CCCCCCCCCCCC[N+](C)(CCO)CC(=O)NCCCCCC.O=C([O-])C(F)(F)F.O=C([O-])C(F)(F)F (configuration not stated)"
  valueObserved: 577

Please report the recorded selectivity ratio for CCCCCCCCNC(=O)C[N+](C)(CCO)CCCCCC[N+](C)(CCO)CC(=O)NCCCCCCCC.[Br-].[Br-] (configuration not stated) .
222

###

We begin with a simple list: items and their reported MIC.
# System: Staphylococcus aureus
# protocolSummary: Antibacterial activity against methicillin-resistant Staphylococcus aureus ATCC 33591 after 24 hrs by tecan plate reader analysis
# Type: functional
# experimentalConditions: ATCC 33591, 24 h

Solved entries:
- compound: "CCCCCCCCNC(=O)C[N+](C)(CCO)CCCCCCCCCC[N+](C)(CCO)CC(=O)NCCCCCCCC.[Br-].[Br-] (stereo not given)"
  MIC: "0.25 to 0.5 µg/mL"
- compound: "CN[C@H](CC(C)C)C(=O)N[C@H]1C(=O)N[C@@H](CC(N)=O)C(=O)N[C@H]2C(=O)N[C@H]3C(=O)N[C@H](C(=O)N[C@H](C(=O)O)c4cc(O)cc(O)c4-c4cc3ccc4O)[C@H](O)c3ccc(c(Cl)c3)Oc3cc2cc(c3O[C@@H]2O[C@H](CO)[C@@H](O)[C@H](O)[C@H]2O[C@H]2C[C@](C)(N)[C@H](O)[C@H](C)O2)Oc2ccc(cc2Cl)[C@H]1O"
  MIC: "0.5 to 1 µg/mL"
- compound: "COc1cccc(OC)c1C(=O)N[C@@H]1C(=O)N2[C@@H]1SC(C)(C)[C@@H]2C(=O)O"
  MIC: "> 32 µg/mL"
- compound: "CCCCCCCCCCCCNC(=O)C[N+](C)(CCO)CCCCCCCCCCCC[N+](C)(CCO)CC(=O)NCCCCCCCCCCCC.[Br-].[Br-] (stereo not given)"
  MIC: "2 to 4 µg/mL"

What value of MIC on Staphylococcus aureus does CCCCCCNC(=O)C[N+](C)(CCO)CCCCCCCCCCCC[N+](C)(CCO)CC(=O)NCCCCCC.O=C([O-])C(F)(F)F.O=C([O-])C(F)(F)F (stereo not given) have?
1 to 2 µg/mL

###

# MIC values compiled below
# System: Staphylococcus aureus
# protocolSummary: Antibacterial activity against methicillin-resistant Staphylococcus aureus ATCC 33591 after 24 hrs by tecan plate reader analysis
# Assay type: functional
# experimentalConditions: ATCC 33591, 24 h

Example entries and their recorded answers appear below.
- molecule: "CCCCCCCCNC(=O)C[N+](C)(CCO)CCCCCCCC[N+](C)(CCO)CC(=O)NCCCCCCCC.[Br-].[Br-] (stereo not drawn)"
  MIC: "0.5 to 1 mg/L"
- molecule: "CCCCCCCCNC(=O)C[N+](C)(CCO)CCCCCC[N+](C)(CCO)CC(=O)NCCCCCCCC.[Br-].[Br-] (stereo not drawn)"
  MIC: "1 to 2 mg/L"

Please examine the following record next.
# input molecule: CCCCCCCCCCCCNC(=O)C[N+](C)(CCO)CCCCCC[N+](C)(CCO)CC(=O)NCCCCCCCCCCCC.[Br-].[Br-] (stereo not drawn) ; wanted: its MIC
1 to 2 mg/L

###

# protocolSummary: Hemolytic activity in human erythrocytes after 1 hr
# Format: ADME, cell-based, Erythrocyte
Listed here: items and their measured HC50 at 1 h.

Example compounds with recorded HC50 at 1 h:
- compound: "CCCCCCNC(=O)C[N+](C)(CCO)CCCCCCCCCC[N+](C)(CCO)CC(=O)NCCCCCC.O=C([O-])C(F)(F)F.O=C([O-])C(F)(F)F (stereo not drawn)"
  HC50 at 1 h: "> 1020 µg/mL"
- compound: "CCCCCCNC(=O)C[N+](C)(CCO)CCC[N+](C)(CCO)CC(=O)NCCCCCC.O=C([O-])C(F)(F)F.O=C([O-])C(F)(F)F (stereo not drawn)"
  HC50 at 1 h: "> 1020 µg/mL"

Now for the compound whose HC50 at 1 h we want.
Reported HC50 at 1 h for CCCCCCNC(=O)C[N+](C)(CCO)CCCCCC[N+](C)(CCO)CC(=O)NCCCCCC.O=C([O-])C(F)(F)F.O=C([O-])C(F)(F)F (stereo not drawn) : what is it?
> 1020 µg/mL

###

# Test system: Escherichia coli
# protocolSummary: Antibacterial activity against Escherichia coli MTCC 443 after 24 hrs by tecan plate reader analysis
# Format: functional
# experimentalConditions: MTCC 443, 24 h
endpoint: MIC

Reference set (4 entries):
- compound: "CCCCCCNC(=O)C[N+](C)(CCO)CCC[N+](C)(CCO)CC(=O)NCCCCCC.O=C([O-])C(F)(F)F.O=C([O-])C(F)(F)F (stereo not given)"
  MIC: "> 256 µg/mL"
- compound: "CCCCCCCCNC(=O)C[N+](C)(CCO)CCCCCCCC[N+](C)(CCO)CC(=O)NCCCCCCCC.[Br-].[Br-] (stereo not given)"
  MIC: "1 to 2 µg/mL"
- compound: "CCCCCCCCNC(=O)C[N+](C)(CCO)CCCCCC[N+](C)(CCO)CC(=O)NCCCCCCCC.[Br-].[Br-] (stereo not given)"
  MIC: "4 to 8 µg/mL"
- compound: "CCCCCCNC(=O)C[N+](C)(CCO)CCCCCC[N+](C)(CCO)CC(=O)NCCCCCC.O=C([O-])C(F)(F)F.O=C([O-])C(F)(F)F (stereo not given)"
  MIC: "> 256 µg/mL"

Lab note: next compound to report on.
Find the recorded MIC belonging to CCCCCCCCNC(=O)C[N+](C)(CCO)CCCCCCCCCCCC[N+](C)(CCO)CC(=O)NCCCCCCCC.[Br-].[Br-] (stereo not given) and report it.
0.5 to 1 µg/mL
